subject of test: NOD2 (Homo sapiens, UniProt Q9HC29)
Construct: host or cells: HEK-Blue NOD2 cells (HEK293-derived)
Sequence (Q9HC29 whole entry): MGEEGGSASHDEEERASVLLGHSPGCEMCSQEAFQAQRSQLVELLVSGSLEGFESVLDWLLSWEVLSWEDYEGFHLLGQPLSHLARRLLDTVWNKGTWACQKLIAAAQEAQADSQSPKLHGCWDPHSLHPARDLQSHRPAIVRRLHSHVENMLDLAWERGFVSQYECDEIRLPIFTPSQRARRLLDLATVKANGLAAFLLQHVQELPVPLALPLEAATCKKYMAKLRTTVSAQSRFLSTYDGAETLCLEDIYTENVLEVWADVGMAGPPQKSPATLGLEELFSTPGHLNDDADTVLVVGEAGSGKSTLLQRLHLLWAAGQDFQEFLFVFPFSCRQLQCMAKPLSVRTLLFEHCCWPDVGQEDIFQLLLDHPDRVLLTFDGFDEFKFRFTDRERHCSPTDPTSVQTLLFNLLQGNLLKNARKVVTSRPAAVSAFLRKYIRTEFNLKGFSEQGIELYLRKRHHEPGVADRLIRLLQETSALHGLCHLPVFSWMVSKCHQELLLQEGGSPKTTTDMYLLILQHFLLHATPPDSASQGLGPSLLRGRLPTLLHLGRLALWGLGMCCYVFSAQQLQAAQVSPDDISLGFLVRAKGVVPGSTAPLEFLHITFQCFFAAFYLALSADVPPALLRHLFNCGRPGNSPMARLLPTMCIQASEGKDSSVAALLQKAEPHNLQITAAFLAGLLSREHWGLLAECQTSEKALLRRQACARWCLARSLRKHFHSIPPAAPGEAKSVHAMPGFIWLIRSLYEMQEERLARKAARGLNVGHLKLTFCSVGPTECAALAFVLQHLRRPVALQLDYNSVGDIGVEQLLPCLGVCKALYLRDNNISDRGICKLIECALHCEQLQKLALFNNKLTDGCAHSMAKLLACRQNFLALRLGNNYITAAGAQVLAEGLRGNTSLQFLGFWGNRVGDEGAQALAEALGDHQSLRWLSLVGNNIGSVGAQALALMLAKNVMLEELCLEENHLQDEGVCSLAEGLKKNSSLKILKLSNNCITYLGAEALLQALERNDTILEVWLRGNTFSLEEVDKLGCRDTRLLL
assay name: HEK-Blue NOD2 cell line reporter assay (NF-κB-inducible SEAP)
Type: cell-based
run parameters: HEK-Blue NOD2 cells
Entries and their measured pEC50 follow.
Bear in mind: pEC50 is minus log10 of a mol/L concentration; give just that figure.

CCCCCCCCCCCCCCCCCC(=O)Oc1ccc(/C=C/C(=O)NCC(=O)N[C@H](C(=O)N[C@H](CCC(=O)OCC)C(=O)OCC)[C@@H](C)O)cc1OC    5.84
CCOC(=O)CC[C@@H](NC(=O)[C@H](COCc1ccccc1)NC(=O)CNC(=O)/C=C/c1ccc(O)c(OC)c1)C(=O)OCC    5.25

get_value(item= CCCCCCCCCCCCCCCCCC(=O)Oc1ccc(/C=C/C(=O)NCC(=O)N[C@H](C(=O)N[C@H](CCC(=O)OC2CCCC2)C(=O)OC2CCCC2)C(C)C)cc1OC , readout=pEC50) returns 5.21

Short answer for CCOC(=O)CC[C@@H](NC(=O)[C@@H](NC(=O)CNC(=O)CCc1ccc(O)c(OC)c1)C(C)C)C(=O)OCC : pEC50 was 5.21

Summary for this compound, CCCCCCCCCCCCCCCCCC(=O)NCCCC[C@H](NC(=O)CC[C@@H](NC(=O)[C@@H](NC(=O)CNC(=O)/C=C/c1ccc(O)c(OC)c1)C(C)C)C(=O)OCC)C(=O)OC : pEC50 is 4.94

Lab note: measured pEC50 of CCOC(=O)[C@@H](CCC(=O)N[C@@H](CCCCN)C(=O)OC)NC(=O)[C@@H](NC(=O)CNC(=O)/C=C/c1ccc(O)c(OC)c1)C(C)C was 4.99

pEC50 for CCCCCCCCCCCCCCCCCC(=O)Oc1ccc(/C=C/C(=O)NCC(=O)N[C@H](C(=O)N[C@H](CCC(=O)OCC)C(=O)OCC)C(C)C)cc1OC is 5.55

----------
subject of test: NOD2 (Homo sapiens)
Construct: host or cells: HEK-Blue NOD2 cells (HEK293-derived)
assay name: HEK-Blue NOD2 cell line reporter assay (NF-κB-inducible SEAP)
Format: cell-based
run parameters: HEK-Blue NOD2 cells, 2 μM, 18 h, NF-κB transcriptional (SEAP) activity relative to 0.1% DMSO, mean ± SEM
Threshold 2 fold increase: NOD2 activity at 2 μM (fold increase) strictly smaller gives YES, otherwise NO.

Recorded results for 3 compounds are shown here.
CCOC(=O)CC[C@@H](NC(=O)[C@@H](NC(=O)CNC(=O)[C@H]1C[C@@H]1c1ccc(F)c(F)c1)C(C)C)C(=O)OCC [Compound 29a]    NO
CCOC(=O)CC[C@@H](NC(=O)[C@@H](NC(=O)CNC(=O)/C=C/c1ccc(N)cc1)C(C)C)C(=O)OCC    NO
CCCCNC(=O)CC[C@@H](NC(=O)[C@@H](NC(=O)CNC(=O)/C=C/c1ccc(O)c(OC)c1)C(C)C)C(=O)OC(C)(C)C    YES

In: Please state whether NOD2 activity at 2 μM (fold increase) is below 2 fold increase for CCOC(=O)CC[C@@H](NC(=O)[C@@H](NC(=O)CNC(=O)C1CC1c1ccc(F)c(F)c1)C(C)C)C(=O)OCC (stereo partly drawn)
Out: NO

In: Does this compound meet the criterion NOD2 activity at 2 μM (fold increase) < 2 fold increase? CCOC(=O)[C@@H](CCC(=O)N[C@@H](CCCCN)C(=O)OC)NC(=O)[C@@H](NC(=O)CNC(=O)/C=C/c1ccc(O)c(OC)c1)C(C)C
Out: YES

In: Is 2 fold increase strictly greater than the compound's reported NOD2 activity at 2 μM (fold increase)? compound: CCCCCCCCCCCCCCCCCCOC(=O)CC[C@@H](NC(=O)[C@@H](NC(=O)CNC(=O)/C=C/c1ccc(O)c(OC)c1)C(C)C)C(=O)OCCCCCCCCCCCCCCCCCC
Out: YES
